# System: Mycobacterium tuberculosis
# method-summary: Antitubercular activity against Mycobacterium tuberculosis H37Rv assessed as reduction in viable colony forming unit at 1000 ug/ml incubated for 42 days by Lowensteine-Jensen method relative to control
# Format: functional
measurement-name: inhibition at 1000 µg/mL (%)

1. CCOc1ccc2c(c1)SC1=NC(C)=C(C(=O)NNC(=O)c3ccncc3)C(c3ccccn3)N12 (stereo not given) :: 63.4
2. CC1=C(C(=O)NNC(=O)c2ccncc2)C(c2ccccn2)N2C(=N1)Sc1cc(OC(F)(F)F)ccc12 (stereo not given) :: 79.7
3. CC1=C(C(=O)NNC(=O)c2ccncc2)C(c2ccccn2)N2C(=N1)Sc1cc([N+](=O)[O-])ccc12 (stereo not given) :: 56.9
4. CC1=C(C(=O)NNC(=O)c2ccncc2)C(c2ccccn2)N2C(=N1)Sc1cccc(C)c12 (stereo not given) :: 47.1
5. COc1cccc2c1N1C(=NC(C)=C(C(=O)NNC(=O)c3ccncc3)C1c1ccccn1)S2 (stereo not given) :: 50.4
